The reported numbers originate from patent US20200024330A1.

Target: Env of the clade F HIV-1 pseudoviruses of the cross-clade 162-pseudovirus panel (n = 15)
Experiment: cell-based or functional assay
measurement-kind: Median IC50 against viruses neutralized with an IC50 <50 µg/ml (µg/mL)

PGT-126 (antibody, V domains shown) VH: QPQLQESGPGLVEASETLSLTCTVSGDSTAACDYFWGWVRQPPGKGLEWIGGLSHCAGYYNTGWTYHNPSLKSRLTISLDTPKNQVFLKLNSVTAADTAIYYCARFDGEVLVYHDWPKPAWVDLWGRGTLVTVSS VL: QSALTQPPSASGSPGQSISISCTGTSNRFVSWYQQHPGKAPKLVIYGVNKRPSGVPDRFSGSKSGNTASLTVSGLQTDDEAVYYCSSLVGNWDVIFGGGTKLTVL	0.05
PGT-125 (antibody, V domains shown) VH: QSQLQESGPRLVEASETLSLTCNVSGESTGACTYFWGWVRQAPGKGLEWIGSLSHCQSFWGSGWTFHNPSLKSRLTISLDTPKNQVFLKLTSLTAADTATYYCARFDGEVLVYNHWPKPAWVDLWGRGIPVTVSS VL: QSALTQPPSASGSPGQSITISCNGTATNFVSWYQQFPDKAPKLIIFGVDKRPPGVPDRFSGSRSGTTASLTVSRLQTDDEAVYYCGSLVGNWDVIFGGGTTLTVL	0.04
PGT-135 (antibody, V domains shown) VH: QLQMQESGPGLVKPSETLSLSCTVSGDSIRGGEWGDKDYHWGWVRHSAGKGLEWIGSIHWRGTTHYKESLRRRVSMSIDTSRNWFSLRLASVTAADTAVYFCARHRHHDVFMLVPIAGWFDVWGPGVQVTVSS VL: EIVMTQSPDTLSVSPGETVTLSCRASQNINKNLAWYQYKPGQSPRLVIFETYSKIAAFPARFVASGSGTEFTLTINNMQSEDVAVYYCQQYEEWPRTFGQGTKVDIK	0.21
